system: Bacillus subtilis; assay: cleaved RNA product abundance (RNA/gDNA barcode ratio) relative to median wild-type variant (ratio to wild type); higher = more accumulation of the downstream cleavage product; conditions: experiment (reporter, strain, medium): exp 4a: truncated aprE reporter, strain BJT201 with 2% xylose (RNase J1 expressed); cleavage site: cggR-gapA (positions -7 to +36 mutated)
Binary call on cleaved RNA product abundance: T from 0.5 upward, F beneath that.

Here's what some known entries look like.
Is reported cleaved RNA product abundance greater than or equal to 0.5 here: ACAGACGAAGGAGCCGCAAAGAAGTTGTTAAGGGATGAATAATCCCTCAATATAAATATCTCTCACTTATTTAAA
F

Also ACAGACGAAGGAGCCGCAATGAAGTTACTAAGGGATGAATAATCCCTCAATATAAATATCTCTCACTTATTTAAA ?
F

Entry to check: ACAGACGAAGGAGCCGCAAAGAAGTGACTAAGGGATGAATAATCCCTCAATATAAATATCTCTCACTTATTTAAA
F

Entry to check: ACAGACGAAGGAGCCGCAAAGAACTTATTAAGGGATGAATAAACCCTCAATATAAATATCTCTCACTTATTTAAA
F

Same read-out for ACAGACGAAGGAGCCGCAAATAAGTTATTAAGGGATGAATAATCCCTCAATATAGATATCTCTCACTTATTTAAA ?
T

Entry ACAGACGAAGGAGCCGCAAAGAAGTTATTAAGGGATGTATAATCCCTCAGTATAAATATCTCTCACTTATTTAAA please
F

Alright, here's another sequence for you.
Is cleaved RNA product abundance for ACAGACGAAGGAGCCGCAATGAAATTATTAAGGGATGAATAATCCCTCAATATAAATATCTCTCACTTATTTAAA at or above 0.5?
T
